Data credit: patent US9765105B2

Could you please report measured MIC values, Pasteurella multocida CVCC399 for the items listed next?
# System: Pasteurella multocida CVCC399
# assay info: in vitro susceptibility, MIC by mini broth dilution
# Type: cell-based
# assay setup: strain CVCC399
Numbers only, in ug/mi.

In the examples that follow, each entry is paired with its recorded MIC values, Pasteurella multocida CVCC399.
1) CCCN1C[C@H](C)[C@@H](O)[C@](C)(O)[C@@H](CC)OC(=O)[C@H](C)[C@@H](O[C@H]2C[C@@](C)(OC)[C@](O)(CNCC3(C)CC(N)CC(C)(C)C3)[C@H](C)O2)[C@H](C)[C@@H](O[C@@H]2O[C@H](C)C[C@H](N(C)C)[C@H]2O)[C@](C)(O)C[C@H]1C (stereo partly drawn): 2
2) CC[C@H]1OC(=O)[C@H](C)[C@@H](O[C@H]2C[C@@](C)(OC)[C@](O)(CNC(C)CCCN(C)C)[C@H](C)O2)[C@H](C)[C@@H](O[C@@H]2O[C@H](C)C[C@H](N(C)C)[C@H]2O)[C@](C)(O)C[C@@H](C)NC[C@H](C)[C@@H](O)[C@]1(C)O (stereo partly drawn): 2
3) CCCN1C[C@H](C)[C@@H](O)[C@](C)(O)[C@@H](CC)OC(=O)[C@H](C)[C@@H](O[C@H]2C[C@@](C)(OC)[C@](O)(CNCC)[C@H](C)O2)[C@H](C)[C@@H](O[C@@H]2O[C@H](C)C[C@H](N(C)C)[C@H]2O)[C@](C)(O)C[C@H]1C: 0.5
4) CC[C@H]1OC(=O)[C@H](C)[C@@H](O[C@H]2C[C@@](C)(OC)[C@](O)(CNCc3ccccc3F)[C@H](C)O2)[C@H](C)[C@@H](O[C@@H]2O[C@H](C)C[C@H](N(C)C)[C@H]2O)[C@](C)(O)C[C@@H](C)NC[C@H](C)[C@@H](O)[C@]1(C)O: 2
5) CCCN1C[C@H](C)[C@@H](O)[C@](C)(O)[C@@H](CC)OC(=O)[C@H](C)[C@@H](O[C@H]2C[C@@](C)(OC)[C@](O)(CNc3nc(OC)cc(OC)n3)[C@H](C)O2)[C@H](C)[C@@H](O[C@@H]2O[C@H](C)C[C@H](N(C)C)[C@H]2O)[C@](C)(O)C[C@H]1C: 8
6) CCCN1C[C@H](C)[C@@H](O)[C@](C)(O)[C@@H](CC)OC(=O)[C@H](C)[C@@H](O[C@H]2C[C@@](C)(OC)[C@](O)(CNCC3CCNCC3)[C@H](C)O2)[C@H](C)[C@@H](O[C@@H]2O[C@H](C)C[C@H](N(C)C)[C@H]2O)[C@](C)(O)C[C@H]1C: 2
7) CC[C@H]1OC(=O)[C@H](C)[C@@H](O[C@H]2C[C@@](C)(OC)[C@](O)(CNc3ccc(C)c(C)c3)[C@H](C)O2)[C@H](C)[C@@H](O[C@@H]2O[C@H](C)C[C@H](N(C)C)[C@H]2O)[C@](C)(O)C[C@@H](C)NC[C@H](C)[C@@H](O)[C@]1(C)O: 0.25

--- query ---
Enquiry: API: value(readout=MIC values, Pasteurella multocida CVCC399, system=Pasteurella multocida CVCC399) for record CCCN1C[C@H](C)[C@@H](O)[C@](C)(O)[C@@H](CC)OC(=O)[C@H](C)[C@@H](O[C@H]2C[C@@](C)(OC)[C@](O)(CNc3nc(Cl)cc(Cl)n3)[C@H](C)O2)[C@H](C)[C@@H](O[C@@H]2O[C@H](C)C[C@H](N(C)C)[C@H]2O)[C@](C)(O)C[C@H]1C
Return: 2
